Biological target: T1, human IGF2^1-67 (mature insulin-like growth factor 2) (human, UniProt P01344 25-91, biotinylated (site not stated) where immobilised on the chip (Tables 1-4))
T1 construct: mature; also called mature IGF2; biotinylated IGF2
T1 sequence (P01344 25-91): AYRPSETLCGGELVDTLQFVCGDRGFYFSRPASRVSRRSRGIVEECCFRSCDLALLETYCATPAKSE
Experiment: SPR kinetic, biotin-IGF2 on chip, pH 7.4
Description: Final kinetic analysis of mutants by SPR was conducted using a Biacore T200 biosensor at 25° C. in either HBS-EP (10 mM HEPES pH 7.4, 150 mM NaCl, 3 mM EDTA, and 0.005% (v/v) surfactant P20) or MES-EP (20 mM MES pH 6.5, 150 mM NaCl, 3 mM EDTA, and 0.005% (v/v) surfactant P20) at a flow-rate of 40 μL min⁻¹. […] Steady state affinities were determined using the kinetic data, taking the response average at 5 seconds before injection end and for 5 seconds average. […]
Kd overview
measured endpoint: Kd (nM)

binder="domain 11^AB5 P1597L (receptor, See m5) MKSNEHDDCQVTNPSTGHLFDLSSLSGRAGFTAAYAKGWGVYMSICGENENCPPGVGACFGQTRISVGKANKRLRYVDQVLQLVYKDGSLCPSKSGLSYKSVISFVCRPEAGPTNRPMLISLDKQTCTLFFSWHTPLACEQATECSV" experimental_value=3.86
binder="domain 11^AB3 P1597K (receptor, See m5) MKSNEHDDCQVTNPSTGHLFDLSSLSGRAGFTAAYSKSGVVYMSICGENENCPPGVGACFGQTRISVGKANKRLRYVDQVLQLVYKDGSKCPSKSGLSYKSVISFVCRPEAGPTNRPMLISLDKQTCTLFFSWHTPLACEQATECSV" experimental_value=2.78
